Measured abundance fitness accompanies every entry in the list below.
B1: Cytoplasmic polyadenylation element-binding protein 2, residues 513 to 575; numbered along this chain, Q7Z5Q1 (parent)
chain: KRVEVKPYVLDDQMCDECQGARCGGKFAPFFCANVTCLQYYCEFCWANIHSRAGREFHKPLVK

Variants of: B1
Experiment: abundance fitness (aPCA) (normalised: wild type 0, dead -1); higher = more abundant; growth selection in yeast, the domain comes from the species named
Conditions: Homo sapiens

Var | abundance fitness
Q39Y | -0.369
C23D | 0.028
V5F | -0.098
S51R | 0.116
F57C | 0.098
C37E | -0.76
T36G | 0.073
A53H | 0.053

[ask] So what does the record say about abundance fitness for `A53M` ?
[reply] -0.045

[ask] Further, for `D12V` ?
[reply] -0.221

[ask] Further, for `A28E` ?
[reply] -0.289

[ask] Further, for `H50N` ?
[reply] -0.827

[ask] Further, for `C45M` ?
[reply] -1.24

[ask] Further, for `A47I` ?
[reply] -0.073

[ask] Further, for `M14Y` ?
[reply] 0.082
